Target: CYP3A4 (Homo sapiens, UniProt P08684)
Sequence (P08684 2-503): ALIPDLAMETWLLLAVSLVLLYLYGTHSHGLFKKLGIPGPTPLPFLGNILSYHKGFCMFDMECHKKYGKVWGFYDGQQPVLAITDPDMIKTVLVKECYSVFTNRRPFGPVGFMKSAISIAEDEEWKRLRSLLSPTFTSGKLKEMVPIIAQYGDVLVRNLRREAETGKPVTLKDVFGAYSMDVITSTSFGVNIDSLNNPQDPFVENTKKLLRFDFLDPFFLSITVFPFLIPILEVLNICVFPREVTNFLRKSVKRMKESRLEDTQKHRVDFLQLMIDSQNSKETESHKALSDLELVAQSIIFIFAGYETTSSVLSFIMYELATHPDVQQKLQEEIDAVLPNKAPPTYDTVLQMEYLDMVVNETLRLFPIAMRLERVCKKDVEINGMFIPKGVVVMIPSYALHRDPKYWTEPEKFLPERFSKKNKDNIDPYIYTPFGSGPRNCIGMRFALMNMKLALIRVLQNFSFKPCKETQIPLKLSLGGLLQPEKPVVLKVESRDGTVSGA
Experiment: IC50 vs CYP3A by inhibition of lopinavir metabolism in human liver microsomes
Format: biochemical
Parameters: 0.01 mg/mL protein human liver microsomes (BD Gentest); tissue BD Gentest; host or cells: human liver microsomes
Conditions: 1.5 μM lopinavir, 0.01 mg/mL human liver microsomes, 8 min at 37° C.; read-out: CYP IC50 (nM) 3A4 (LPV)
Experimental: Determination of IC50 vs CYP3A by Measurement of Inhibition of Lopinavir Metabolism This assay was performed in a standard 96-well plate design. […] The production of the sum of three hydroxylated metabolites (M2: 6-hydroxy lopinavir, M3: 4-hydroxy lopinavir, M4: 4-hydroxy lopinavir (epimer of M3), Kumar et al., 1999) was determined after incubation for 8 min at 37° C. […] The peak area ratio of the analyte to the internal standard was used to quantify the metabolite. […]
experimental_readout: IC50 (nM)

// worked examples, IC50 included
Reported CYP3A4 (Homo sapiens, UniProt P08684) IC50 for item CN1CCN(c2ccc(S(=O)(=O)N3CCc4c(cccc4-c4cncn4CCc4ccc(F)cc4)C3)cn2)CC1 was 1.5

Reported CYP3A4 (Homo sapiens, UniProt P08684) IC50 for item O=S(=O)(c1ccc(N2CCN(CCO)CC2)nc1)N1CCCC1c1ccccc1-c1cncn1CCc1ccc(F)cc1 (single isomer, unassigned) [Compound 35a] was 4.2

Reported CYP3A4 (Homo sapiens, UniProt P08684) IC50 for item O=S(=O)(c1cnc(N2CCN3C[C@H](O)C[C@H]3C2)s1)N1CCc2c(cccc2-c2cncn2CCc2ccc(F)cc2)C1 was 1.6

Reported CYP3A4 (Homo sapiens, UniProt P08684) IC50 for item O=S(=O)(c1ccc2c(c1)OCO2)N1CCCC1c1ccccc1-c1cncn1CCc1ccc(F)cc1 (centres unmarked) was 1

Reported CYP3A4 (Homo sapiens, UniProt P08684) IC50 for item O=S(=O)(c1ccc(NCC(O)C2CC2)nc1)N1CCCC1c1ccccc1-c1cncn1CCc1ccc(F)cc1 (single isomer, unassigned) [Compound 34a] was 4.5

Reported CYP3A4 (Homo sapiens, UniProt P08684) IC50 for item COc1ccc(OC)c(S(=O)(=O)N2CCCC2c2ccccc2-c2cncn2CCc2ccc(F)cc2)c1 (centres unmarked) was 41

(P) CC(C)OC(=O)N1CCCC1c1ccccc1-c1cncn1CCc1ccc(F)cc1 (single isomer, unassigned) [Compound 39b]
(Q) O=S(=O)(c1cnc(Cl)c(Br)c1)N1CCCC1c1cccc(-c2cncn2CCc2ccc(F)cc2)c1 (centres unmarked)
Prompt: Would you kindly point out which of P and Q has the smaller IC50 figure? Identify your selection by its label.
Completion: Q
